- Organism: Homo sapiens
- test details: Selectivity ratio of EC50 for human V1a receptor to EC50 for human OTR
Numbered stars: 1 amine (or outer) side, 2 acyl side, 3 side chain; on linkers, the order of the positions; unused ones are H or OH. Bridge positions count the residues as written; N and C are the ends. Square brackets hold non-standard residues; d marks the D form. Peptide text beside a SMILES is read from it. Hyp = O=C(O)[C@@H]1C[C@@H](O)CN1; NMeS = CN[C@@H](CO)C(=O)O; X1 = O=C(CCC[*:2])[*:1]; Mpa = O=C(O)CCS
Below, each entry is listed alongside its reported Ratio EC50.

Worked examples, 4 compounds total:
*Q* Query Ratio EC50 for CC[C@H](C)[C@@H]1NC(=O)[C@H](Cc2ccc(O)cc2)NC(=O)CCSSC[C@@H](C(=O)N2CCC[C@H]2C(=O)N[C@@H](CC(C)C)C(=O)N[C@@H](CC(C)C)C(N)=O)NC(=O)[C@H](CC(N)=O)NC(=O)[C@H](CCC(N)=O)NC1=O ([Mpa]YIQNCPLL-NH2; disulfide 1-6)
*A* > 10

*Q* For the compound CCCCCCC(NC(=O)[C@@H]1CCCN1C(=O)[C@@H]1CSSCCC(=O)N[C@@H](Cc2ccc(O)cc2)C(=O)N[C@@H]([C@@H](C)CC)C(=O)N[C@@H](CCC(N)=O)C(=O)N[C@@H](CC(N)=O)C(=O)N1)C(=O)NCC(N)=O (some centres not stated) , give its reported Ratio EC50.
*A* 120

*Q* Please supply the value of reported Ratio EC50 for the item CC[C@H](C)[C@@H]1NC(=O)[C@H](Cc2ccc(O)cc2)NC(=O)CCCSC[C@@H](C(=O)N2C[C@H](O)C[C@H]2C(=O)N[C@@H](CC(C)C)C(=O)NCC(N)=O)NC(=O)[C@H](CC(N)=O)NC(=O)[C@H](CCC(N)=O)NC1=O (YIQNC[Hyp]LG-NH2; linker N-5 via X1)
*A* > 10000

*Q* Let me know recorded Ratio EC50 for CC[C@H](C)[C@@H]1NC(=O)[C@H](Cc2ccc(O)cc2)NC(=O)CCSSC[C@@H](C(=O)N2CCC[C@H]2C(=O)N[C@@H](CCC(=O)O)C(=O)NCC(N)=O)NC(=O)[C@H](CC(N)=O)NC(=O)[C@H](CCC(N)=O)NC1=O ([Mpa]YIQNCPEG-NH2; disulfide 1-6) , thanks.
*A* > 100

Next:
*Q* Please supply the value of reported Ratio EC50 for the item CC(C)C[C@H](NC(=O)[C@@H]1CCCN1C(=O)[C@@H]1CSSCCC(=O)N[C@@H](Cc2ccc(O)cc2)C(=O)N[C@@H](CO)C(=O)N[C@@H](CCC(N)=O)C(=O)N[C@@H](CC(N)=O)C(=O)N1)C(=O)NCC(N)=O ([Mpa]YSQNCPLG-NH2; disulfide 1-6)
*A* > 2

*Q* Give Ratio EC50 for the following compound: CC[C@H](C)[C@@H]1NC(=O)[C@H](Cc2ccc(O)cc2)NC(=O)CCSSC[C@@H](C(=O)N(C)[C@@H](CO)C(=O)N[C@@H](CC(C)C)C(=O)NCC(N)=O)NC(=O)[C@H](CC(N)=O)NC(=O)[C@H](CCC(N)=O)NC1=O ([Mpa]YIQNC[NMeS]LG-NH2; disulfide 1-6)
*A* > 1000

*Q* Provide measured Ratio EC50 value, entry: CC[C@H](C)[C@@H]1NC(=O)[C@H](Cc2ccc(O)cc2)NC(=O)CCSSC[C@@H](C(=O)N2CCC[C@H]2C(=O)N[C@@H](CC(C)C)C(=O)N[C@@H](Cc2ccccc2)C(N)=O)NC(=O)[C@H](CC(N)=O)NC(=O)[C@H](CCC(N)=O)NC1=O ([Mpa]YIQNCPLF-NH2; disulfide 1-6)
*A* > 10
